Test system: RET (human), P07949 [V804M]
Sequence (P07949 whole entry V804M, looked up): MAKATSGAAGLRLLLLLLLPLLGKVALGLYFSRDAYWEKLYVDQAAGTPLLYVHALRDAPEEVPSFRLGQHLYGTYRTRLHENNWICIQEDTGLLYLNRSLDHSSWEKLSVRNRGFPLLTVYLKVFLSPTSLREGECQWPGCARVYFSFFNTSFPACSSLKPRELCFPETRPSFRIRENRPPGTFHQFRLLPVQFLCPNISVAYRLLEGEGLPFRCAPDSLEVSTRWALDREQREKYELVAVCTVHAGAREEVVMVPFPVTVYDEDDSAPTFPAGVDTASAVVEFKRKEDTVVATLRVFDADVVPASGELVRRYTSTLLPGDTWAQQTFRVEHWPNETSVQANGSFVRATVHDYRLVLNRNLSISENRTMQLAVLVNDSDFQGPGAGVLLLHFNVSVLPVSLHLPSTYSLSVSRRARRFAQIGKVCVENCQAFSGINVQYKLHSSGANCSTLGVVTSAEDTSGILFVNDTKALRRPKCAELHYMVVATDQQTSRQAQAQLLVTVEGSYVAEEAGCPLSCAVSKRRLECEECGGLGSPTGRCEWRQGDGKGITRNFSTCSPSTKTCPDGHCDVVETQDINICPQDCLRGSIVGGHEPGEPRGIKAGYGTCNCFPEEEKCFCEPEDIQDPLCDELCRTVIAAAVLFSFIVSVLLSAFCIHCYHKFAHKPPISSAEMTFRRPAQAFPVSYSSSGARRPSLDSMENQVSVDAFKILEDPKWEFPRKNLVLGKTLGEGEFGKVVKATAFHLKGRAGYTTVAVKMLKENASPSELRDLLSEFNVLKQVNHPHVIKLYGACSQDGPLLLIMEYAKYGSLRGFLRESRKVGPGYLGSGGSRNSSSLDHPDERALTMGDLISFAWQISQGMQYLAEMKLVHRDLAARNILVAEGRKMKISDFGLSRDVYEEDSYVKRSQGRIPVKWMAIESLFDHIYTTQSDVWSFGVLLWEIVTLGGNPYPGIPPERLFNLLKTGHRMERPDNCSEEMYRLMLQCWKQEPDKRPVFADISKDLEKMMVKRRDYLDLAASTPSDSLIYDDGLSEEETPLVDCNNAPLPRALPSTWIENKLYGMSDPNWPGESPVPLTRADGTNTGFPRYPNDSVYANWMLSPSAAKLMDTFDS
PROCEDURE TEXT: KINOMEscan competition binding
CONDITION INFO: compound 10.0 µM
OBSERVATION TYPE: kinase still bound, per cent of control (%)
Field: numeric (%). Do not append units.

Query :: Entry COc1ccc(-c2ccc3c(N4CCOCC4)nc(N4C[C@@H](C)O[C@@H](C)C4)nc3n2)cc1CO needs its kinase still bound, per cent of control filled in; supply it.
Result :: 94

---
Query :: Entry CC(C)n1nc(-c2cc3cc(O)ccc3[nH]2)c2c(N)ncnc21 needs its kinase still bound, per cent of control filled in; supply it.
Result :: 12

Query :: Entry CCC(=O)N1CCN(c2ccc(-n3c(=O)ccc4cnc5ccc(-c6cnc7ccccc7c6)cc5c43)cc2C(F)(F)F)CC1 needs its kinase still bound, per cent of control filled in; supply it.
Result :: 69

Query :: Entry COC(=O)Nc1ccc(-c2nc(N3CCOCC3)c3cnn(C4CCN(C(=O)OC)CC4)c3n2)cc1 needs its kinase still bound, per cent of control filled in; supply it.
Result :: 100

* * *

STUDY SYSTEM: UniProt P51955
Sequence (P51955 whole entry, looked up): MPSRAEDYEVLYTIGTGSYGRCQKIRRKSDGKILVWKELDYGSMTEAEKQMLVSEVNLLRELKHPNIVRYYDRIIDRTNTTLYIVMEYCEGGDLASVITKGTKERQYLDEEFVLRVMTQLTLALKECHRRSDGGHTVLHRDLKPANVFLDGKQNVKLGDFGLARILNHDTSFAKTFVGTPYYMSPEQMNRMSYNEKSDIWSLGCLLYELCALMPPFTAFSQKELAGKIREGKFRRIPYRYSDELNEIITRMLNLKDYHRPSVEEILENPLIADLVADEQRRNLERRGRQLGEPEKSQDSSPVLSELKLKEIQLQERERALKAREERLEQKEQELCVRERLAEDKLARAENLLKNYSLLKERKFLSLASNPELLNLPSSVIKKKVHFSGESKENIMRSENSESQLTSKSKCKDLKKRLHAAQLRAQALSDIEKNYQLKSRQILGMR
PROCEDURE TEXT: KINOMEscan competition binding
CONDITION INFO: compound 10.0 µM
OBSERVATION TYPE: kinase still bound, per cent of control (%)
Field: numeric (%). Do not append units.

Completed entries (count: 3):
Query :: Entry COC(=O)Nc1ccc(-c2nc(N3CCOCC3)c3cnn(C4CCN(C(=O)OC)CC4)c3n2)cc1 needs its kinase still bound, per cent of control filled in; supply it.
Result :: 100

Query :: Entry CCC(=O)N1CCN(c2ccc(-n3c(=O)ccc4cnc5ccc(-c6cnc7ccccc7c6)cc5c43)cc2C(F)(F)F)CC1 needs its kinase still bound, per cent of control filled in; supply it.
Result :: 90

Query :: Entry COc1ccc(-c2ccc3c(N4CCOCC4)nc(N4C[C@@H](C)O[C@@H](C)C4)nc3n2)cc1CO needs its kinase still bound, per cent of control filled in; supply it.
Result :: 100

Next up:
Query :: Entry CC(C)n1nc(-c2cc3cc(O)ccc3[nH]2)c2c(N)ncnc21 needs its kinase still bound, per cent of control filled in; supply it.
Result :: 75

* * *

Measured per cent of control values are reported for all entries that follow.
STUDY SYSTEM: CDK2 CCNA2 (human) (UniProt P20248+P24941)
CONDITION INFO: compound 1.0 µM
Express your answer as a number followed by its unit.

Query :: Entry CCC(=O)N1CCN(c2ccc(-n3c(=O)ccc4cnc5ccc(-c6cnc7ccccc7c6)cc5c43)cc2C(F)(F)F)CC1 needs its per cent of control filled in; supply it.
Result :: 108%

Query :: Entry CC(C)n1nc(-c2cc3cc(O)ccc3[nH]2)c2c(N)ncnc21 needs its per cent of control filled in; supply it.
Result :: 78%

Query :: Entry COc1ccc(-c2ccc3c(N4CCOCC4)nc(N4C[C@@H](C)O[C@@H](C)C4)nc3n2)cc1CO needs its per cent of control filled in; supply it.
Result :: 89%

Next up:
Query :: Entry COC(=O)Nc1ccc(-c2nc(N3CCOCC3)c3cnn(C4CCN(C(=O)OC)CC4)c3n2)cc1 needs its per cent of control filled in; supply it.
Result :: 111%

* * *

STUDY SYSTEM: UniProt Q14012
Sequence (Q14012 whole entry, looked up): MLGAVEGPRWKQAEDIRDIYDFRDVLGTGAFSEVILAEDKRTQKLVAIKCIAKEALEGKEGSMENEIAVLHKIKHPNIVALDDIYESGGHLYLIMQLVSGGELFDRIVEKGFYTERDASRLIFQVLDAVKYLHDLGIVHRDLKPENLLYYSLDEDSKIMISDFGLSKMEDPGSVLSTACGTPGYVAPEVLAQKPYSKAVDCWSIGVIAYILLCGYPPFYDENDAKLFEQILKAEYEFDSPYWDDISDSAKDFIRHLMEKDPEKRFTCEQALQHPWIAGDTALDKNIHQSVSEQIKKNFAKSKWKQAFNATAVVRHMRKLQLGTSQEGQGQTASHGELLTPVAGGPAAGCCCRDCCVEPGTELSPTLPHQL
CONDITION INFO: compound 10.0 µM
Measured per cent of control values are reported for all entries that follow.
Field: numeric (%). Do not append units.

Query :: Entry COc1ccc(-c2ccc3c(N4CCOCC4)nc(N4C[C@@H](C)O[C@@H](C)C4)nc3n2)cc1CO needs its per cent of control filled in; supply it.
Result :: 101

Query :: Entry CCC(=O)N1CCN(c2ccc(-n3c(=O)ccc4cnc5ccc(-c6cnc7ccccc7c6)cc5c43)cc2C(F)(F)F)CC1 needs its per cent of control filled in; supply it.
Result :: 77

Query :: Entry CC(C)n1nc(-c2cc3cc(O)ccc3[nH]2)c2c(N)ncnc21 needs its per cent of control filled in; supply it.
Result :: 33

Next up:
Query :: Entry COC(=O)Nc1ccc(-c2nc(N3CCOCC3)c3cnn(C4CCN(C(=O)OC)CC4)c3n2)cc1 needs its per cent of control filled in; supply it.
Result :: 102
